molecular target: FGF14:Nav1.6 C-tail complex (Homo sapiens, UniProt Q92915+Q9UQD0); construct: polymerase chain reaction (PCR) amplification of the FGF14 open reading frame (nt 1–855); C-terminal fragment of Nav1.6 (amino acids 1763–1976) fused with CD4ΔC-tail (amino acids 1–395); expressed in transfected cells; assay: Split-luciferase complementation assay (LCA) in Clone V double stable HEK293 cells; type: cell-based; settings: CC_NCI screening; average of Set 1 and Set 2; normalized to 0.3% DMSO controls
Sequence (Q92915 1-252 isoform Q92915-2): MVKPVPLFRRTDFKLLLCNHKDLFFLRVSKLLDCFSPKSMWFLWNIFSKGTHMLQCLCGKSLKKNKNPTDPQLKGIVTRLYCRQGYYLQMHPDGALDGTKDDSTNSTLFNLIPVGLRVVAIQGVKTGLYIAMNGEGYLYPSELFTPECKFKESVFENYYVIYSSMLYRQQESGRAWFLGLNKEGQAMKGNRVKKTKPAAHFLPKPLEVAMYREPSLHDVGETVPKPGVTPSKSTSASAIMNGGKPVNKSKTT
Sequence (Q9UQD0 1763-1976 limits assumed): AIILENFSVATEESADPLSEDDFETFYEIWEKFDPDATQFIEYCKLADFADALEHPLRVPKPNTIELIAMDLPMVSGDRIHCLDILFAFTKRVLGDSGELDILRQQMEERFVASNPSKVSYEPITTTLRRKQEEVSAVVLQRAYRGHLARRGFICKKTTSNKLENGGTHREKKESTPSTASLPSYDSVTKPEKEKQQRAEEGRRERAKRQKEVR
Counter-ions that a name gives are not always drawn.
Split Luciferase Assay %Lum Avg overview
Remember to quote the unit after the number.

Solved entries:
- compound: "CO[C@H]1C[C@@H]2CC[C@@H](C)[C@@](O)(O2)C(=O)C(=O)N2CCCC[C@H]2C(=O)O[C@H]([C@H](C)C[C@@H]2CC[C@@H](OCCO)[C@H](OC)C2)CC(=O)[C@H](C)/C=C(\\C)[C@@H](O)[C@@H](OC)C(=O)[C@H](C)C[C@H](C)/C=C/C=C/C=C/1C"
  test readout: "Split Luciferase Assay %Lum Avg"
  observed measurement: "80.34%"
- compound: "COc1nc(N)nc2c1ncn2[C@@H]1O[C@H](CO)[C@@H](O)[C@@H]1O"
  test readout: "Split Luciferase Assay %Lum Avg"
  observed measurement: "122.06%"
- compound: "CNC(=O)c1ccc(N2C(=S)N(c3ccc(C#N)c(C(F)(F)F)c3)C(=O)C2(C)C)cc1F [Enzalutamide]"
  test readout: "Split Luciferase Assay %Lum Avg"
  observed measurement: "96.87%"
- compound: "Cc1ccc(Nc2nccc(N(C)c3ccc4c(C)n(C)nc4c3)n2)cc1S(N)(=O)=O.Cl [Pazopanib hydrochloride]"
  test readout: "Split Luciferase Assay %Lum Avg"
  observed measurement: "20.73%"

Now let's try a different one.
(Q) Tell us which Split Luciferase Assay %Lum Avg value is on record for CCC1=C[C@@H]2CN(C1)Cc1c([nH]c3ccccc13)[C@@](C(=O)OC)(c1cc3c(cc1OC)N(C)[C@H]1[C@@](O)(C(=O)OC)[C@H](OC(C)=O)[C@]4(CC)C=CCN5CC[C@]31[C@@H]54)C2 [Vinorelbine tartrate]
(A) 208.53%

###

test system: Clone V cells; experiment: CellTiter Blue (CTB) cell viability counter-screen; conditions: CC_NCI screening; CTB cell viability fluorescence; normalized to on-plate 0.3% DMSO controls
test readout: Toxicity Assay % Fluor
Remember to quote the unit after the number.

- compound: "C=CC[C@@H]1/C=C(\\C)C[C@H](C)C[C@H](OC)[C@H]2O[C@@](O)(C(=O)C(=O)N3CCCC[C@H]3C(=O)O[C@H](/C(C)=C/[C@@H]3CC[C@@H](O)[C@H](OC)C3)[C@H](C)[C@@H](O)CC1=O)[C@H](C)C[C@@H]2OC [FK-506]"
  observed measurement: "113.03%"
- compound: "C[C@]1(c2nc3c(C(N)=O)cccc3[nH]2)CCCN1 [ABT-888]"
  observed measurement: "107.03%"
- compound: "Cc1ccc(NC(=O)c2ccc(CN3CCN(C)CC3)cc2)cc1Nc1nc(-c2cccnc2)cs1 [MASITINIB]"
  observed measurement: "86.99%"

(Q) Tell us which Toxicity Assay % Fluor value is on record for Cn1cnc2c(F)c(Nc3ccc(Br)cc3Cl)c(C(=O)NOCCO)cc21 [AZD 6244]
(A) 108.13%

(Q) Tell us which Toxicity Assay % Fluor value is on record for C[C@]12CC[C@H](O)CC1=CC[C@@H]1[C@@H]2CC[C@]2(C)C(c3cccnc3)=CC[C@@H]12 [Abiraterone]
(A) 84.37%
